Biological target: T1, biotinylated PD1-ECD-AviHis (human, UniProt Q15116 25-170, biotinylated, site not stated)
T1 construct: also called huPD1; hu PD1
Assay: ELISA on coated biotinylated PD1-ECD-AviHis
value.kind: EC50
Value and unit, in that order.

Inquiry: Quick one: EC50 of PD1-0103-0313 (antibody, human IgG1, V domains shown, Humanized) VH: EVQLLESGGGLVQPGGSLRLSCAASGFSFSSYTMSWVRQAPGKGLEWVATISGGGRDIYYPDSVKGRFTISRDNSKNTLYLQMNSLRAEDTAVYYCVLLTGRVYFALDSWGQGTLVTVSS VL: DVVMTQSPLSLPVTLGQPASISCRASESVDTSDNSFIHWYQQRPGQSPRLLIYRSSTLESGVPDRFSGSGSGTDFTLKISRVEAEDVGVYYCQQNYDVPWTFGQGTKVEIK ?
Reply text: 70 pM

All values here come from patent US20190322748A1.
